Target: T1, mfPRLR.mmh (soluble monomeric macaca fascicularis PRLR) (macaca fascicularis)
T1 construct: soluble monomeric PRLR protein; also called macaca fascicularis (mf) PRLR.mmh; monkey PRLR
T1 chain: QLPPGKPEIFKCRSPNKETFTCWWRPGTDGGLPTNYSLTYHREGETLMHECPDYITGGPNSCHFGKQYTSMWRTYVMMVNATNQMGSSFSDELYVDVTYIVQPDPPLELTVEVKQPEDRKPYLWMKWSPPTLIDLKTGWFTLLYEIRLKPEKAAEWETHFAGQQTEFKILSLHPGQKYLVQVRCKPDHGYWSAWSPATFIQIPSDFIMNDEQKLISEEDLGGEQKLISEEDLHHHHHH
Experiment: SPR (Biacore), antibody capture, 37 C
property: koff

H1H6959N2 (antibody, human IgG1, V domains shown, also called H2M6959N2) VH: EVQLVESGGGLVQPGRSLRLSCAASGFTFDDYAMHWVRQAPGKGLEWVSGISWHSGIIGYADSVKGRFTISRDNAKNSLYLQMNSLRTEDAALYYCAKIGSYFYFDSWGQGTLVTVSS VL: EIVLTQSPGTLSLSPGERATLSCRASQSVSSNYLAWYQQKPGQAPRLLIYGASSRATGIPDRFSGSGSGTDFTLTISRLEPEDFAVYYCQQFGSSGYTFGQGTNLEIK; 0.0165 s⁻¹
H1H6774P (antibody, human IgG1, V domains shown, human IgG1 Fc (H1H)) VH: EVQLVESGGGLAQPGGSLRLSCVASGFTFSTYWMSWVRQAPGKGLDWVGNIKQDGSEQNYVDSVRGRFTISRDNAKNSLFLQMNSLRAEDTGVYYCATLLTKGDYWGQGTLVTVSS VL: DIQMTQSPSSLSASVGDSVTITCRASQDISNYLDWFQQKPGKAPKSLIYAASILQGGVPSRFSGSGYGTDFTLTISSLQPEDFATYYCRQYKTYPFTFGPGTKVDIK; 0.00361 s⁻¹
H1H6782P (antibody, human IgG1, V domains shown, human IgG1 Fc (H1H)) VH: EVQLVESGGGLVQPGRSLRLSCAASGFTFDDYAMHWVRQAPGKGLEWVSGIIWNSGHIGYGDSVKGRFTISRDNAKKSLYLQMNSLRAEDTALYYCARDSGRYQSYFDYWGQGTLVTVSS VL: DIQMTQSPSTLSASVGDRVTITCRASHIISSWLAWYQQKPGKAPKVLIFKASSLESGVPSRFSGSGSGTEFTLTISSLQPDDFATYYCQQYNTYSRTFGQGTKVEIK; 0.000767 s⁻¹
H1H6781P (antibody, human IgG1, V domains shown, human IgG1 Fc (H1H)) VH: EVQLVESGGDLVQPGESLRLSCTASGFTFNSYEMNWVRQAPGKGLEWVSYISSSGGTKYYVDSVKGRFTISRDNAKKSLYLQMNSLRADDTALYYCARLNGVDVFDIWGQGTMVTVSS VL: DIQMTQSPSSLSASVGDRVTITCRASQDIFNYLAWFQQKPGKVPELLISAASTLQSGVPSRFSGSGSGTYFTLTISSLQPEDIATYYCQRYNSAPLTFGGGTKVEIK; 0.000267 s⁻¹
H1H6793P (antibody, human IgG1, V domains shown, human IgG1 Fc (H1H)) VH: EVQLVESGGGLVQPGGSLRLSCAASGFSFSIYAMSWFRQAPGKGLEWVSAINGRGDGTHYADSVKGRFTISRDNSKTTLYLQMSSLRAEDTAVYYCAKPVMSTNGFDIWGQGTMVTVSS VL: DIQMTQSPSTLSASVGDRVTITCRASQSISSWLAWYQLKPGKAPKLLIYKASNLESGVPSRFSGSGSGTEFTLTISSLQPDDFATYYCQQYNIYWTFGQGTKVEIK; 0.00107 s⁻¹
H1H6795P (antibody, human IgG1, V domains shown, human IgG1 Fc (H1H)) VH: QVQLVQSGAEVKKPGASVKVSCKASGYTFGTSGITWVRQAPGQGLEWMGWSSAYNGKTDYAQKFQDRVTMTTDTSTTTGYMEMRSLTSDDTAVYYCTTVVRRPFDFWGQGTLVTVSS VL: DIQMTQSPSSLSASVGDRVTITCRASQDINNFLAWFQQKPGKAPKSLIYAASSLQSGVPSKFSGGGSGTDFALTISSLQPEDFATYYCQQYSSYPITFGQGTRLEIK; 0.00599 s⁻¹
H1H6801P (antibody, human IgG1, V domains shown, human IgG1 Fc (H1H)) VH: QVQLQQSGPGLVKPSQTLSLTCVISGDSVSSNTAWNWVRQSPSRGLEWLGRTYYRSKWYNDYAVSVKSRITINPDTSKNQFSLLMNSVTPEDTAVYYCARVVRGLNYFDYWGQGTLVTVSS VL: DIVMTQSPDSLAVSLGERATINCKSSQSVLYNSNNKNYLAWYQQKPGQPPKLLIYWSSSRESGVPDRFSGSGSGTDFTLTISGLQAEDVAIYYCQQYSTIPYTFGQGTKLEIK; 0.00771 s⁻¹
H1H6762P (antibody, human IgG1, V domains shown, human IgG1 Fc (H1H)) VH: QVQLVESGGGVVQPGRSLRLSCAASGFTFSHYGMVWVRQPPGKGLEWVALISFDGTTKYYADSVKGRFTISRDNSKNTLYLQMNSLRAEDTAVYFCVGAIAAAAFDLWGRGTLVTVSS VL: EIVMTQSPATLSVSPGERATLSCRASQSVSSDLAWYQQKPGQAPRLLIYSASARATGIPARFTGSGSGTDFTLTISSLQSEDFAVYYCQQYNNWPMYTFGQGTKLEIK; 0.000558 s⁻¹

Hi! Can you tell me koff for each of these binders?
1. H1H6797P (antibody, human IgG1, V domains shown, human IgG1 Fc (H1H)) VH: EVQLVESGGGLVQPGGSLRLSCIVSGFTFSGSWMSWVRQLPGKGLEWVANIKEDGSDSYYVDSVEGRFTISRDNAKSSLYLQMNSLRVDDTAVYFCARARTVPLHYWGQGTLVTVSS VL: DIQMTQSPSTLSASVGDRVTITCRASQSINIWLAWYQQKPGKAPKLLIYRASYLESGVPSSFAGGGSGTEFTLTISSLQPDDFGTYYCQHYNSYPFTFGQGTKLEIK
2. H1H6975N (antibody, human IgG1, V domains shown, also called H2M6975N) VH: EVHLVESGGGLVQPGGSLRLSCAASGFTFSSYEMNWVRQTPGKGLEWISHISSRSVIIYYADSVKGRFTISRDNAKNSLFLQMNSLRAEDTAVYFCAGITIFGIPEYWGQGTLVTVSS VL: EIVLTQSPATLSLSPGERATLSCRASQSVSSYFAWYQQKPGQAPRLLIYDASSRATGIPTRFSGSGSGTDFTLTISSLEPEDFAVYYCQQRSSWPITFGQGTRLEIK

0.00906 s⁻¹
0.000317 s⁻¹
